Listed here are binders together with their documented % Positive cells.
- experimental-target: T1, human chemokine (C-C motif) receptor 8 (CCR8) (human, UniProt P51685 1-355)
- T1 construct: also called hCCR8
- T1 sequence (P51685 whole entry): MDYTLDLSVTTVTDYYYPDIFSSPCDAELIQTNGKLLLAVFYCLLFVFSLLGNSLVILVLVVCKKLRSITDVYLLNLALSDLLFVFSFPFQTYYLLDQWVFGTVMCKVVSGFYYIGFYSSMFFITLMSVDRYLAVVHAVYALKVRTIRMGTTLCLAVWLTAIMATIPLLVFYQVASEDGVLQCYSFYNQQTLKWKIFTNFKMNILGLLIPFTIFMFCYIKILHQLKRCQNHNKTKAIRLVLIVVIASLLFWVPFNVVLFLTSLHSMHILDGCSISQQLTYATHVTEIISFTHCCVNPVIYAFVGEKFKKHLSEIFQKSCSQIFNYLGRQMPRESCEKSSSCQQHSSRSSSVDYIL
- assay-details: flow cytometry blocking, human PBMC, CD3+ gate; % cells stained by competitor PE-AB10 after block

- binder: "anti-CCR8 monoclonal antibody AB10 (antibody, V domains shown, Hybridoma monoclonal; also called antibody 10; clone 10) VH: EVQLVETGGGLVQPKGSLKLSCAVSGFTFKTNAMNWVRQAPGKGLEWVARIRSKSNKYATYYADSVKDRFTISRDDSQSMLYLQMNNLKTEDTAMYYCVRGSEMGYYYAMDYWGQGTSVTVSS VL: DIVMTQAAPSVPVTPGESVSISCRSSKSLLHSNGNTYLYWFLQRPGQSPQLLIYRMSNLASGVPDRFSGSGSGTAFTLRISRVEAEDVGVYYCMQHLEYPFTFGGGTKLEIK"
  % Positive cells [%]: 0.15
- binder: "anti-CCR8 monoclonal antibody AB6 (antibody, V domains shown, also called antibody 6; clone 6) VH: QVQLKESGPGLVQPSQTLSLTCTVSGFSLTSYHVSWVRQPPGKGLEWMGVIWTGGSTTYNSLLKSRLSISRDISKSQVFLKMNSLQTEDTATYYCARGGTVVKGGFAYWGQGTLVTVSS VL: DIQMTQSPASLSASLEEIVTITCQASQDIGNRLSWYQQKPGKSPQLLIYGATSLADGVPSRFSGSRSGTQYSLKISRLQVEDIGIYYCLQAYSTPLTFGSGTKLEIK"
  % Positive cells [%]: 5.61
- binder: "anti-CCR8 monoclonal antibody AB11 (antibody, V domains shown, Hybridoma monoclonal; also called antibody 11; clone 11) VH: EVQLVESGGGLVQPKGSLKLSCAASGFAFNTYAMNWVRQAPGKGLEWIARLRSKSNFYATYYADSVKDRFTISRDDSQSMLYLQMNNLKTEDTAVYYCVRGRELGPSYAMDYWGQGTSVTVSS VL: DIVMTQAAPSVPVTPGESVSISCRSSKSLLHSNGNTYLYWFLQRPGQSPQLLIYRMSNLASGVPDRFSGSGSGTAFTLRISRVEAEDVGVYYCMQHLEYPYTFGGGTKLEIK"
  % Positive cells [%]: 0.21
